- assay-remarks: qHTS Assay for Identifying Gametocytocidal Compounds (AID 743244);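 also: % is scaled to controls: 0 for no effect and ±100 for the full control effect; actives lower the fluorescent signal which means gametocytes are killed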
- run-conditions: P. falciparum 3D7 stage III-V gametocytes, alamarBlue, 72 h; stronger effect = lower value
Inconclusive results are not listed. Calls of active or inactive are those of the source. Calls follow the shape of the dose curve; as a rule, active = well fitted curve in the direction sought with a large enough effect; inconclusive = small, poorly fitted or top-dose-only effect, or another doubt; inactive = no such curve, though single readings can be large or run the other way.
max response values for the compounds below.
measured-quantity: max response

[[record]]
compound = "OCCN(CCO)c1nc(N2CCCCC2)c2nc(N(CCO)CCO)nc(N3CCCCC3)c2n1"
measured_quantity = "max response"
result = "7.4% (inactive)"

[[record]]
compound = "C[C@H]1c2cccc(O)c2C(O)=C2C(=O)[C@]3(O)C(O)=C(C(N)=O)C(=O)[C@@H](N(C)C)[C@@H]3[C@@H](O)[C@@H]21"
measured_quantity = "max response"
result = "18.1% (inactive)"

[[record]]
compound = "CN1CCN2c3ccccc3Cc3ccccc3C2C1 (stereo not drawn)"
measured_quantity = "max response"
result = "25.6% (inactive)"

[[record]]
compound = "CC(C)(C)C(=O)Oc1ccc(S(=O)(=O)Nc2ccccc2C(=O)NCC(=O)O)cc1"
measured_quantity = "max response"
result = "3.13% (inactive)"

[[record]]
compound = "CC(CCc1ccc(O)cc1)NCCc1ccc(O)c(O)c1 (stereo not drawn)"
measured_quantity = "max response"
result = "27.1% (inactive)"

[[record]]
compound = "CC12CC3CC(C)(C1)CC(N)(C3)C2"
measured_quantity = "max response"
result = "12.5% (inactive)"

[[record]]
compound = "C[C@@H]1CC(=O)NN=C1c1ccc(NN=C(C#N)C#N)cc1"
measured_quantity = "max response"
result = "16.6% (inactive)"

[[record]]
compound = "CC(=O)OCC(CCn1cnc2cnc(N)nc21)COC(C)=O"
measured_quantity = "max response"
result = "13.8% (inactive)"


Data provenance: PubChem BioAssay (NCATS)
